Origin of values: ChEMBL document CHEMBL6178013

Assay: Tmax in male CD-1 mouse at 1 mg/kg, iv measured for 0.083 to 48 hrs by HPLC/MS/MS analysis
Format: ADME, organism-based
Conditions: in vivo, time 0.083-48 hrs
ENDPOINT_NAME: Tmax (min)
Your answer should be a plain number; it is taken to be in min.

Sure, the documented Tmax for `Fc1cc(-c2nc3c(C(F)(F)F)cc(C(F)(F)F)cc3[nH]2)cc(-c2nc3c(C(F)(F)F)cc(C(F)(F)F)cc3[nH]2)c1` is 4.8

----------
In this section we review reported pIC50 values for a set of compounds.
Tested on: MCF7
Test: Cytotoxicity against human MCF7 cells incubated for 48 hrs by MTT assay
Type: functional, cell-based
Conditions: MCF7, 48 h
Recall that pIC50 is obtained by taking minus log10 of the concentration measured in molar.

COMPOUND	pIC50
FC(F)(F)c1cc(C(F)(F)F)c2nc(-c3cccc(-c4nc5c(C(F)(F)F)cc(C(F)(F)F)cc5[nH]4)c3)[nH]c2c1	5.62

So for `O=[N+]([O-])c1cc(-c2nc3cc(F)c(C(F)(F)F)cc3[nH]2)cc(-c2nc3cc(F)c(C(F)(F)F)cc3[nH]2)c1` , the logged pIC50 turned out to be 5.47

Entry COc1cccc2c1C(=O)c1c(O)c3c(c(O)c1C2=O)C[C@@](O)(C(=O)CO)C[C@@H]3O[C@H]1C[C@H](N)[C@H](O)[C@H](C)O1 [DOXORUBICIN] , pIC50 reported as 6.59

Just so you know, measured pIC50 for `Fc1cc2nc(-c3cccc(-c4nc5cc(F)c(C(F)(F)F)cc5[nH]4)c3)[nH]c2cc1C(F)(F)F` came out at 4.95

----------
Reported Ka values for a set of compounds
System: Chloride
Assay: Binding affinity to chloride anions using tetrabutylammonium chloride salt assessed as association constant by 1H NMR spectroscopy

The following compounds have reported results that may help.
O=[N+]([O-])c1cc(-c2nc3c(C(F)(F)F)cc(C(F)(F)F)cc3[nH]2)cc(-c2nc3c(C(F)(F)F)cc(C(F)(F)F)cc3[nH]2)c1 6.58 10^3/M
c1cc(-c2nc3ccccc3[nH]2)cc(-c2nc3ccccc3[nH]2)c1 1.45 10^4/M

Turning to the following compound.
// field: Ka; key: `O=[N+]([O-])c1cc(-c2nc3ccc(C(F)(F)F)cc3[nH]2)cc(-c2nc3ccc(C(F)(F)F)cc3[nH]2)c1` ; value = 5.25 10^3/M

----------
Test: MRT (0 to t) in male CD-1 mouse at 1 mg/kg, iv measured for 0.083 to 48 hrs by HPLC/MS/MS analysis
Format: ADME, organism-based
Settings: in vivo, time 0.083-48 hrs
ENDPOINT_NAME: MRT last (h)
# number only, unit h dropped from output

Lab book: MRT last of `Fc1cc(-c2nc3c(C(F)(F)F)cc(C(F)(F)F)cc3[nH]2)cc(-c2nc3c(C(F)(F)F)cc(C(F)(F)F)cc3[nH]2)c1` noted as 2.64

----------
Tested on: Chloride
Experiment: Binding affinity to chloride anions assessed as fold increase in anionophoric activity in egg-yolk L-alpha-phosphatidylcholine liposome model measured per lipid by pyranine-based fluorescent assay relative to m-Bimbe
ENDPOINT_NAME: fold change (FC)

O=[N+]([O-])c1cc(-c2nc3c(C(F)(F)F)cc(C(F)(F)F)cc3[nH]2)cc(-c2nc3c(C(F)(F)F)cc(C(F)(F)F)cc3[nH]2)c1 1.81 10^3No_unit

Kindly note the recorded fold change (FC) for `Fc1cc(-c2nc3cc(F)c(C(F)(F)F)cc3[nH]2)cc(-c2nc3cc(F)c(C(F)(F)F)cc3[nH]2)c1` , which is 2.55 10^2No_unit

Documented fold change (FC) of `Fc1cc2nc(-c3cccc(-c4nc5cc(F)c(C(F)(F)F)cc5[nH]4)c3)[nH]c2cc1C(F)(F)F` : 15.1

Looking up `c1cc(-c2nc3ccccc3[nH]2)cc(-c2nc3ccccc3[nH]2)c1` , I found its fold change (FC) recorded as 3.5 10^3No_unit

The reported fold change (FC) of the molecule `Fc1cc(-c2nc3ccc(C(F)(F)F)cc3[nH]2)cc(-c2nc3ccc(C(F)(F)F)cc3[nH]2)c1` was 6.28 10^2No_unit

Query `O=[N+]([O-])c1cc(-c2nc3ccc(C(F)(F)F)cc3[nH]2)cc(-c2nc3ccc(C(F)(F)F)cc3[nH]2)c1` yields fold change (FC) of 4.84 10^3No_unit

Entry `O=[N+]([O-])c1cc(-c2nc3cc(F)c(C(F)(F)F)cc3[nH]2)cc(-c2nc3cc(F)c(C(F)(F)F)cc3[nH]2)c1` — recorded fold change (FC) = 4.08 10^2No_unit

Entry `Fc1cc(-c2nc3c(C(F)(F)F)cc(C(F)(F)F)cc3[nH]2)cc(-c2nc3c(C(F)(F)F)cc(C(F)(F)F)cc3[nH]2)c1` , fold change (FC) reported as 2.32 10^2No_unit

Record summary for `FC(F)(F)c1cc(C(F)(F)F)c2nc(-c3cccc(-c4nc5c(C(F)(F)F)cc(C(F)(F)F)cc5[nH]4)c3)[nH]c2c1` : reported fold change (FC) = 35.8
